# pKa listing for each entry below
- MEASUREMENT_DESCRIPTION: pKa of amine lipid by TNS fluorescence
- Format: physicochemical
- PARTICULARS: probe TNS (6-(p-toluidino)-2-naphthalenesulfonic acid sodium salt), unformulated amine lipid in ethanol, sodium phosphate buffers -9.0
RESULT_TYPE: pKa

In [3]: df
Out[3]:
                                   molecule  observed_result
0  CCCCC/C=C\C/C=C\CCCCCCCC(=O)OCC(COC(=O)CCCCCCC/C=C\C/C=C\CCCCC)OC(=O)CCC(CCCC)OC(=O)NCCN1CCCC1 (stereo not drawn)             7.02
1  CCCCC/C=C\C/C=C\CCCCCCCC(=O)OCC(COC(=O)CCCCCCC/C=C\C/C=C\CCCCC)COC(=O)CCC(CCCC)OC(=O)NCCN1CCCC1 (stereo not drawn)             7.02
2  CCCCC/C=C\C/C=C\CCCCCCCC(=O)OCC(COC(=O)CCCCCCC/C=C\C/C=C\CCCCC)OC(=O)CCC(CCCCCCCC)OC(=O)NCCN1CCC1 (stereo not drawn)             6.96
